- Experimental system: T1, human GIP receptor (human, UniProt P48546 22-466)
- T1 sequence (looked up): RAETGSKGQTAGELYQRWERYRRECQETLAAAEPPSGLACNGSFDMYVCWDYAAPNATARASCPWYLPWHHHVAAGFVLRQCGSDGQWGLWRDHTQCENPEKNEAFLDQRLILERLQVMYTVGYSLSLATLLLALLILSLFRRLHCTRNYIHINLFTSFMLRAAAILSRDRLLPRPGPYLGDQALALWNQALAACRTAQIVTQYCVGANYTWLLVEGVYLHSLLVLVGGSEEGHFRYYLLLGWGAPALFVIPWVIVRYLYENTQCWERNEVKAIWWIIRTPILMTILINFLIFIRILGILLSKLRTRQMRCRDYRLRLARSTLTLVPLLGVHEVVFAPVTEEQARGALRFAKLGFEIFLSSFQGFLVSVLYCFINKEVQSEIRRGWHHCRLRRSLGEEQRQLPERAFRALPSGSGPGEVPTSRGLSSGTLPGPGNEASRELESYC
- Test details: cell-based or functional assay
Give cAMP EC50 (1.0% HSA) for every item shown.
Give bare numbers, in nM.

# annotated cases, reported cAMP EC50 (1.0% HSA) shown
YXEGTXTSDYXIXLDXIAQXKFIXXLIKGGPSSGAPPPS (Y-Aib-EGT-αMeF(2F)-TSDY-Aib-I-αMeL-LD-Orn-IAQ-Aib-K((2-[2-(2-Amino-ethoxy)-ethoxy]-acetyl)-(γ-Glu)-(10-(4-carboxyphenoxy)decanoyl))FI-(D-Glu)-αMeY-LIK((2-[2-(2-Amino-ethoxy)-ethoxy]-acetyl)-(γ-Glu)-(10-(4-carboxyphenoxy)decanoyl))GGPSSGAPPPS-NH2) [Example 376] | 39.6
YXEGTXTSDYXIXLDXKAQXKFIXXLIEGGPSSGAPPPS (Y-Aib-EGT-αMeF(2F)-TSDY-Aib-I-αMeL-LD-Orn-K((2-[2-(2-Amino-ethoxy)-ethoxy]-acetyl)-(γ-Glu)-(10-(4-carboxyphenoxy)decanoyl))AQ-Aib-K((2-[2-(2-Amino-ethoxy)-ethoxy]-acetyl)-(γ-Glu)-(10-(4-carboxyphenoxy)decanoyl))FI-(D-Glu)-αMeY-LIEGGPSSGAPPPS-NH2) [Example 372] | 3.75
YXEGTXTSDXXIXLDXKAQXXFIXXLIKGGPSSGAPPPS (Y-Aib-EGT-αMeF(2F)-TSD-4Pal-Aib-I-αMeL-LD-Orn-K((2-[2-(2-Amino-ethoxy)-ethoxy]-acetyl)2-(γ-Glu)-CO-(CH2)10-CH3)AQ-Aib-Orn-FI-(D-Glu)-αMeY-LIK((2-[2-(2-Amino-ethoxy)-ethoxy]-acetyl)2-(γ-Glu)-CO-(CH2)10-CH3)GGPSSGAPPPS-NH2) [Example 414] | 0.274

Could you report cAMP EC50 (1.0% HSA) for every entry in the following list?
1. YXEGTXTSDXXIXLDXKAQXKFIXXLIEGGPSSGAPPPS (Y-Aib-EGT-αMeF(2F)-TSD-4Pal-Aib-I-αMeL-LD-Orn-K(PEG3-(γ-Glu)-CO-(CH2)12-CO2H)AQ-Aib-K(PEG3-(γ-Glu)-CO-(CH2)12-CO2H)FI-(D-Glu)-αMeY-LIEGGPSSGAPPPS-NH2) [Example 404]
2. YXEGTXTSDXXIXLDXKAQXEFIXXLIEGGPSSGAPPPSK (Y-Aib-EGT-αMeF(2F)-TSD-4Pal-Aib-I-αMeL-LD-Orn-K((2-[2-(2-Amino-ethoxy)-ethoxy]-acetyl)-(γ-Glu)-CO-(CH2)10-CH3)AQ-Aib-EFI-(D-Glu)-αMeY-LIEGGPSSGAPPPSK((2-[2-(2-Amino-ethoxy)-ethoxy]-acetyl)-(γ-Glu)-CO-(CH2)10-CH3)-NH2) [Example 428]
3. YXEGTXTSDYXIXLDXQAQXXFIKXLIKGGPSSGAPPPS (Y-Aib-EGT-αMeF(2F)-TSDY-Aib-I-αMeL-LD-Orn-QAQ-Aib-Orn-FIK((2-[2-(2-Amino-ethoxy)-ethoxy]-acetyl)3-(γ-Glu)-CO-(CH2)12-CO2H)-αMeY-LIK((2-[2-(2-Amino-ethoxy)-ethoxy]-acetyl)3-(γ-Glu)-CO-(CH2)12-CO2H)GGPSSGAPPPS-NH2) [Example 479]

Result string:
[1.74, 0.748, 0.196]
